Assay Method Text: in vivo
Particulars: C57BL/6, mouse, plasma, po, 0.8 mg/kg
Description: AUC (0 to t) in C57BL/6 mouse plasma at 0.8 mg/kg administered via oral gavage measured at 10 to 90 mins post dose by LC-MS analysis
Quantity Measured: AUC(0-t)

*Q* Name the recorded AUC(0-t) for [N-]=[N+]=CC(=O)CC[C@H](N)C(=O)O [6-DIAZO-5-OXO-L-NORLEUCINE] .
*A* 1.25 µM·h

----------
Assay Method Text: Metabolic stability in monkey plasma assessed as compound remaining at 10 uM at 60 mins by LC-MS/MS analysis
Assay type: ADME, cell-free, Macaca mulatta
Particulars: rhesus monkey, read-out: Stability
remaining at 1 h, 10 µM values by entry
# value in %; strip the unit string

Compound	Test Value
CCC(OC(=O)N[C@@H](CCC(=O)C=[N+]=[N-])C(=O)OC)OC(=O)C(C)(C)C (some centres not stated)	75

*Q* Name the recorded remaining at 1 h, 10 µM for CC(C)C[C@H](N)C(=O)N[C@@H](CCC(=O)C=[N+]=[N-])C(=O)OC(C)C .
*A* 1

*Q* Entry to check: CCOC(=O)[C@H](CCC(=O)C=[N+]=[N-])NC(=O)OCc1oc(=O)oc1C
*A* 0

*Q* Entry to check: COC(=O)[C@H](CCC(=O)C=[N+]=[N-])NC(=O)OC(OC(=O)C(C)(C)C)C(C)C (some centres not stated)
*A* 61

*Q* Entry to check: CC(C)OC(=O)[C@H](CCC(=O)C=[N+]=[N-])NC(=O)OCOC(=O)C(C)(C)C
*A* 0

*Q* Entry to check: CCOC(=O)[C@H](CCC(=O)C=[N+]=[N-])NC(=O)[C@@H](N)CC(C)C
*A* 1

*Q* Entry to check: Cc1oc(=O)oc1COC(=O)N[C@@H](CCC(=O)C=[N+]=[N-])C(=O)OC(C)C
*A* 0

----------
Assay Method Text: Cmax in C57BL/6 mouse plasma at 0.8 mg/kg administered via oral gavage by LC-MS analysis
Assay type: ADME, organism-based
Parameters: dose 0.8 mg/kg, route oral
Quantity Measured: Cmax (nM)
# value in nM; strip the unit string

*Q* Name the recorded Cmax for [N-]=[N+]=CC(=O)CC[C@H](N)C(=O)O .
*A* 2200

----------
Assay Method Text: Metabolic stability in human plasma assessed as compound remaining at 10 uM at 60 mins by LC-MS/MS analysis
Type: ADME, cell-free
Particulars: read-out: Stability
Lab note: anything with remaining at 1 h, 10 µM below 9% is marked t; values at 9% or higher are marked f.

Examples from the recorded data:
Compound	Category
Cc1oc(=O)oc1COC(=O)N[C@@H](CCC(=O)C=[N+]=[N-])C(=O)OC(C)C	t
CCC(OC(=O)N[C@@H](CCC(=O)C=[N+]=[N-])C(=O)OC)OC(=O)C(C)(C)C (some centres not stated)	f
CCOC(=O)[C@H](CCC(=O)C=[N+]=[N-])NC(=O)OCc1oc(=O)oc1C	t
COC(=O)[C@H](CCC(=O)C=[N+]=[N-])NC(=O)OC(OC(=O)C(C)(C)C)C(C)C (some centres not stated)	f
CC(C)C[C@H](N)C(=O)N[C@@H](CCC(=O)C=[N+]=[N-])C(=O)OC(C)C	t

Okay, now this compound:
*Q* Regarding CCOC(=O)[C@H](CCC(=O)C=[N+]=[N-])NC(=O)[C@@H](N)CC(C)C , kindly confirm whether its remaining at 1 h, 10 µM is beneath 9%.
*A* t
